# measured target: rHuman CD44/Fc Chimera (human, UniProt P16070 21-220)
# measurement protocol: ECL multispot (MSD) binding assay; antigen spotted on plate, Fab in solution;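 further: purified Fab bound for 1 h at 20 °C, detected with a TAG-labelled antibody, electrochemiluminescence compared with each well's blank, signal-to-blank ratio of at least 4 scored as hit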
endpoint name: ECL signal
Lab note: record the figure alone, no unit after it.

binder: Fab VH1-46_IGHD6-6*01_IGHJ1*01 S102A/S103P/S104F/H111F (APFF) & L6_IGKJ1*01 S92V (Fab, V domains shown, Tested as Fab (CH1 with His6/Flag tags from Plasmid A; kappa CL from Plasmid C); also called APFF / S92V) VH: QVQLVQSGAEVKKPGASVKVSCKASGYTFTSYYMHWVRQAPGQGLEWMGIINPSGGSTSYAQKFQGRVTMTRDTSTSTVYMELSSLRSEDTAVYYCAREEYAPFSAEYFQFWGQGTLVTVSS VL: EIVLTQSPATLSLSPGERATLSCRASQSVSSYLAWYQQKPGQAPRLLIYDASNRATGIPARFSGSGSGTDFTLTISSLEPEDFAVYYCQQRVNWPPWTFGQGTKVEIKR
ECL signal: 331

binder: Fab VH1-46_IGHD6-6*01_IGHJ1*01 S102A/S103P/S104F/H111F (APFF) & L6_IGKJ1*01 S92C (Fab, V domains shown, Tested as Fab made in E. coli: VH cloned into Plasmid A (CH1, His6 and Flag tags), kappa VL into Plasmid C (kappa CL); also called APFF / S92C) VH: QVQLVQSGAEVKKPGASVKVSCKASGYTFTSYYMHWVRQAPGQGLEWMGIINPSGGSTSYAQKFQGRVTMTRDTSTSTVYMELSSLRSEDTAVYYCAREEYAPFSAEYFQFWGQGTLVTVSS VL: EIVLTQSPATLSLSPGERATLSCRASQSVSSYLAWYQQKPGQAPRLLIYDASNRATGIPARFSGSGSGTDFTLTISSLEPEDFAVYYCQQRCNWPPWTFGQGTKVEIKR
ECL signal: 554

INPUT: Quick one: ECL signal for Fab VH1-46_IGHD6-6*01_IGHJ1*01 S102A/S103P/S104F/H111F (APFF) & L6_IGKJ1*01 S92N (Fab, V domains shown, Tested as Fab (CH1 with His6/Flag tags from Plasmid A; kappa CL from Plasmid C); also called APFF / S92N) VH: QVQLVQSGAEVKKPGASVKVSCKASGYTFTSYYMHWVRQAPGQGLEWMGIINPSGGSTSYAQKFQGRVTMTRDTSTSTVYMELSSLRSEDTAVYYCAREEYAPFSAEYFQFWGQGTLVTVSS VL: EIVLTQSPATLSLSPGERATLSCRASQSVSSYLAWYQQKPGQAPRLLIYDASNRATGIPARFSGSGSGTDFTLTISSLEPEDFAVYYCQQRNNWPPWTFGQGTKVEIKR ?
OUTPUT: 336
